Every entry's value here was drawn from patent US20130197027A1.

Biological target: hM1 (Homo sapiens, UniProt P11229)
Construct: host or cells: CHO-K1
Sequence (P11229 whole entry): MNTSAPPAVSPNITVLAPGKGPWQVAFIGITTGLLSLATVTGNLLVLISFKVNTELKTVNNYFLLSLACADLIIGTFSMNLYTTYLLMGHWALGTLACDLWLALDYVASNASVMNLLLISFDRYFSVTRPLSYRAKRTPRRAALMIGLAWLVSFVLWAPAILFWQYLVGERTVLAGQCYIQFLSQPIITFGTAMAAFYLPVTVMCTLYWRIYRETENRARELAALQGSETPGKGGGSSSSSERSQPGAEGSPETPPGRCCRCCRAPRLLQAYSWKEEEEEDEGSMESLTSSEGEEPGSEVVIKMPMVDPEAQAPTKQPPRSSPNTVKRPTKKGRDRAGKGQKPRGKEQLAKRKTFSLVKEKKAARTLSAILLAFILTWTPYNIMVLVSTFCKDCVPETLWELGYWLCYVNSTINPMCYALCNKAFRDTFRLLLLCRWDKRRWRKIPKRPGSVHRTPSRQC
Experiment: Calcium mobilization assay in CHO-K1 cells stably expressing human M1 (high throughput, FDSS 6000)
Type: cell-based
Listed here: items and their measured pEC50.
Note on units: pEC50 is unitless, being -log10 of a concentration expressed in mol/L.

{"columns": ["COMPOUND", "pEC50"],
 "data": [
  ["CCOC(=O)N1C2CCC1CC(N1CCC[C@@H](NC(=O)c3cccc(OC)c3)C1)C2 (stereo partly drawn) [Example 4]", 6.60],
  ["CCOC(=O)N1C2CCC1CC(N1CCC[C@@H](NC(=O)c3ccccc3Cl)C1)C2 (stereo partly drawn) [Example 7]", 6.24]
]}

Consider the record given below.
What value of pEC50 on hM1 (Homo sapiens, UniProt P11229) does CCOC(=O)N1C2CCC1CC(N1CCC[C@@H](NC(=O)c3ccccc3C)C1)C2 (stereo partly drawn) [Example 2] have?
7.28
